# Tested system: integrin linked kinase (Homo sapiens, UniProt Q13418)
# Construct: The target integrin linked kinase is a full-length recombinant protein expressed in sF9 insect cells by baculovirus infection; GST (N); virus made in Sf9 cells, litre-scale expression in Hi5 insect cells
# Test details: In vitro kinase inhibition assay, integrin linked kinase (radioactive phosphate incorporation, scintillation counting)
# Reported conditions: full-length recombinant ILK expressed in insect cells; substrate CKRRRLASLR-amide; 15 min at room temperature
// pIC50 lookup, one value per entry
Schema: pIC50 number; meaning minus log10 of the concentration expressed in molar units.

// solved cases for pIC50 follow
{"Compound": "N=C1NN=C(N)/C1=N/Nc1ccccc1 [KP-23194, 3,5-diamino-4-phenylhydrazonopyrazole]", "pIC50": 6.22}
{"Compound": "NC1=NN=C(N)C1=NNc1cccc2ccccc12", "pIC50": 6.22}
{"Compound": "NC1=NN=C(N)C1=NNc1c(O)ccc2ccccc12", "pIC50": 5.52}

Tested system integrin linked kinase (Homo sapiens, UniProt Q13418); pIC50 recorded for `CC(=O)Nc1ccc(NN=C2C(N)=NN=C2N)cc1` was 5.30

----------
# Tested system: integrin linked kinase (Homo sapiens)
# Construct: The target integrin linked kinase is a full-length recombinant protein expressed in sF9 insect cells by baculovirus infection; GST (N); virus made in Sf9 cells, litre-scale expression in Hi5 insect cells
# Test details: In vitro kinase inhibition assay, integrin linked kinase (radioactive phosphate incorporation, scintillation counting)
# Reported conditions: full-length recombinant ILK expressed in insect cells; substrate CKRRRLASLR-amide; 15 min at room temperature
# maps each entry to its pIC50
The meaning of pIC50 here: minus log10 of the concentration in molar units.

A selection of reference data follows.
{"Compound": "COc1ccc(/N=N/C2C(=O)NN=C2N)cc1O (stereo not drawn)", "Measured metric": "pIC50", "Result value": 4.74}
{"Compound": "NC1=NN=C(N)C1=NNCC1CCNCC1", "Measured metric": "pIC50", "Result value": 4.89}
{"Compound": "COc1ccc(N/N=C2/C(=N)NN=C2N)cc1", "Measured metric": "pIC50", "Result value": 6.00}

Next up:
Summary for this compound, `NC1=NN=C(N)C1=NNc1nccs1` : pIC50 is 6.05

----------
# Tested system: integrin linked kinase (Homo sapiens)
# Construct: The target integrin linked kinase is a full-length recombinant protein expressed in sF9 insect cells by baculovirus infection; GST (N); virus made in Sf9 cells, litre-scale expression in Hi5 insect cells
# Sequence (Q13418 1-452): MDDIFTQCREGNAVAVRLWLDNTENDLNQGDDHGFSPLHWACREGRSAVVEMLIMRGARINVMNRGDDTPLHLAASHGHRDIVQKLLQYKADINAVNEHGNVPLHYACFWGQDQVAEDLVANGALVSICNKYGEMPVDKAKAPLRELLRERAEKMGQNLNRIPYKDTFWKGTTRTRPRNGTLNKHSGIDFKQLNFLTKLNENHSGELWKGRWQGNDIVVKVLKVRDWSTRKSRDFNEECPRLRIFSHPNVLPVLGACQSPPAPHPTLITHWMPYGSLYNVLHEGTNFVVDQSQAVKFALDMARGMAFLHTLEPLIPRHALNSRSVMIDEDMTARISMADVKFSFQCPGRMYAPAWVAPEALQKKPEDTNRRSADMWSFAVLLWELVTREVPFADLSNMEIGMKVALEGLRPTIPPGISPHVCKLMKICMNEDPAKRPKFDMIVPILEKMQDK
# Test details: In vitro kinase inhibition assay, integrin linked kinase (radioactive phosphate incorporation, scintillation counting)
# Reported conditions: full-length recombinant ILK expressed in insect cells; substrate CKRRRLASLR-amide; 15 min at room temperature
Measured metric: IC50

Check out these entries, answers already filled in.
{"Compound": "COc1ccc(/N=N/C2C(=O)NN=C2N)cc1 (stereo not drawn) [KP-23200]", "Tested system": "integrin linked kinase (Homo sapiens)", "IC50": "> 20 µM"}
{"Compound": "COc1ccc(NN=C2C(=O)NNC2=O)cc1 [KP-23204]", "Tested system": "integrin linked kinase (Homo sapiens)", "IC50": "> 20 µM"}

The measured IC50 associated with NC1=NN=C(N)C1=NNc1ccc(S(=O)(=O)O)cc1 [KP-27288] reads > 20 µM

----------
# Tested system: integrin linked kinase (Homo sapiens)
# Construct: The target integrin linked kinase is a full-length recombinant protein expressed in sF9 insect cells by baculovirus infection; GST (N); virus made in Sf9 cells, litre-scale expression in Hi5 insect cells
# Test details: In vitro kinase inhibition assay, integrin linked kinase (radioactive phosphate incorporation, scintillation counting)
# Reported conditions: full-length recombinant ILK expressed in insect cells; substrate CKRRRLASLR-amide; 15 min at room temperature
As shown below, each of these compounds has a reported pIC50 value.
// scale note: pIC50 = -log10(conc_M); give the bare number

# example entries with known answers
{"Molecular string": "NC1=NN=C(N)C1=NNc1ccc(C(=O)O)cc1", "pIC50": 4.89}
{"Molecular string": "NC1=NN=C(N)C1=NNN1CCOCC1", "pIC50": 5.02}

The measured pIC50 associated with `NC1=NN=C(N)C1=NNc1ccc(Cl)cc1` reads 5.92

Field pIC50 (entry `NC1=NN=C(N)C1=NNc1ncc[nH]1` ) reads 4.55

----------
# Tested system: integrin linked kinase (Homo sapiens)
# Construct: The target integrin linked kinase is a full-length recombinant protein expressed in sF9 insect cells by baculovirus infection; GST (N); virus made in Sf9 cells, litre-scale expression in Hi5 insect cells
# Test details: In vitro kinase inhibition assay, integrin linked kinase (radioactive phosphate incorporation, scintillation counting)
# Reported conditions: full-length recombinant ILK expressed in insect cells; substrate CKRRRLASLR-amide; 15 min at room temperature
Measured metric: IC50

Answered examples (2):
{"Compound": "COc1ccc(NN=C2C(=O)NNC2=O)cc1O [KP-23205]", "IC50": "> 20 µM"}
{"Compound": "Cc1ccc(/N=N/C2C(=O)NN=C2N)cc1 (stereo not drawn) [KP-23199]", "IC50": "> 20 µM"}

Value of IC50 reported for the compound NC1=NN=C(N)C1=NNc1ccc(O)cc1 [KP-27389] is > 20 µM
